# TARGET_ENTITY: HA of ca A/Beijing/262/95 (H1N1) virus (influenza A virus)
# PROTOCOL_DETAILS: cell-based or functional assay
Returns one of 1.0 or 0.0; 1.0 when Neutralization IC50, H1-BJ95 is >= 2 µg/mL.

Please review the following examples before continuing.
BINDER	ASSIGNED_LABEL
Antibody 14 (antibody, V domains shown) VH: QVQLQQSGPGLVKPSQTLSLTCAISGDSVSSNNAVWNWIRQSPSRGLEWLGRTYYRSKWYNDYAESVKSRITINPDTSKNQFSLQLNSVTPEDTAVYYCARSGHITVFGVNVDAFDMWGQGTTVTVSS VL: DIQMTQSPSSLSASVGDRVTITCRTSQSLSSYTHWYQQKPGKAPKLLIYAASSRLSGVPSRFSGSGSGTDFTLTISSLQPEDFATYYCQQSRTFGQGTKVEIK	1.0
Antibody 15 (antibody, V domains shown) VH: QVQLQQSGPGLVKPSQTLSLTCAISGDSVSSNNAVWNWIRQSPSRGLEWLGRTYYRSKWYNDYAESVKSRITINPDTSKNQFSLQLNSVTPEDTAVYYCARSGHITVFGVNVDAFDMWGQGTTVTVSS VL: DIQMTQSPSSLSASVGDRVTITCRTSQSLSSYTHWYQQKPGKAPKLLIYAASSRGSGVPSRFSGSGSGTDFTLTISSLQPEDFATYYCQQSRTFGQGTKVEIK	0.0
Antibody 13 (antibody, V domains shown) VH: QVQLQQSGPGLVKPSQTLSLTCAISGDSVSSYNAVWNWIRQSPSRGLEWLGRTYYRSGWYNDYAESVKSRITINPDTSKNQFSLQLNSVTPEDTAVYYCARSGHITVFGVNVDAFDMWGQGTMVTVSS VL: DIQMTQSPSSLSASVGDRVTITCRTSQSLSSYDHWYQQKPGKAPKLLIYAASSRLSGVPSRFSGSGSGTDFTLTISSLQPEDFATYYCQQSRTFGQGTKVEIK	0.0
Antibody 11 (antibody, V domains shown) VH: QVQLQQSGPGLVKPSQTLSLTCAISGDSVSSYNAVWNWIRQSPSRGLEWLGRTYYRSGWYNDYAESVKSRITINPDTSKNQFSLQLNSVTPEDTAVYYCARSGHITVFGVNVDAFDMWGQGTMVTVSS VL: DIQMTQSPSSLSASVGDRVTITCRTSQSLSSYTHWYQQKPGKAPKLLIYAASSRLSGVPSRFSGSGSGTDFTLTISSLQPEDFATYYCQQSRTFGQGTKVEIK	0.0

Query binder follows.
Confirm if Neutralization IC50, H1-BJ95 reported for the binder Antibody 12 (antibody, V domains shown) VH: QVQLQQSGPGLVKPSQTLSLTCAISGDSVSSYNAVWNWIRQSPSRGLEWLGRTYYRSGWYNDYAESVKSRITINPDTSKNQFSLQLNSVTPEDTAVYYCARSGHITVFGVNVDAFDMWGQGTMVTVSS VL: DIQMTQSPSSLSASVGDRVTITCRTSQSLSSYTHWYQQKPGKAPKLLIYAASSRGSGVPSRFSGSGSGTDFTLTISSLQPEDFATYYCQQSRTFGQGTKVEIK is 2 µg/mL or above.
0.0
